src = the supplement of paper PMC7046801

Tested on: NHEK immortalized keratinocytes
Settings: 24 h
Structures can show the parent of a compound that is named as a salt.
Consider the cut-off 20 µM. If the recorded IC50 cell viability (WST-8) is strictly smaller, the label is MET; if not, the label is NOT MET.

1. CCCCNC(=O)OCC#CI [3-Iodo-2-propynyl-N-butylcarbamate] : NOT MET

Task: Criterion: IC50 cell viability (WST-8) strictly below 20 µM. Is it met by CNc1ccc(O)cc1 [p-Methylaminophenol sulfate] ?
Result: MET

Task: Same for C=C/C=C\CC1=C(C)[C@@H](OC(=O)[C@@H]2[C@@H](/C=C(\C)C(=O)OC)C2(C)C)CC1=O.C=C/C=C\CC1=C(C)[C@@H](OC(=O)[C@@H]2[C@@H](C=C(C)C)C2(C)C)CC1=O
Result: NOT MET

Task: Proceed to CCCCCCCCCCCCOC(=O)c1cc(O)c(O)c(O)c1 [Dodecyl gallate]
Result: NOT MET

---

Reported IC50 cell viability (WST-8) values follow for various compounds
System: NKTC primary neonatal keratinocytes
Details: 24 h

Before answering, review these 3 worked examples.
1) CC(=O)[O][Hg][c]1ccccc1 [Phenylmercuric acetate] : 380 nM
2) Cc1c2ccccc2c(C)c2c1ccc1ccccc12 : 46200 nM
3) [K+].[K+].[O]=[Cr](=[O])([O-])[O][Cr](=[O])(=[O])[O-] [Potassium dichromate] : 2300 nM

// next item, IC50 cell viability (WST-8) requested
Task: Dear colleague, I am looking for the recorded IC50 cell viability (WST-8) of the following compound: O=CCCCC=O
Result: > 88000 nM

---

System: NHEK immortalized keratinocytes
Details: 24 h
Counter-ions that a name gives are not always drawn.
Mark each entry Met if its IC50 cell viability (WST-8) sits below 6 µM, and Not met for all others.

1. C=CC(=O)OCCO [2-Hydroxyethyl acrylate] : Not met
2. CN(C)c1ccc(C(=C2C=CC(=[N+](C)C)C=C2)c2ccc(N(C)C)cc2)cc1 [Methylrosaniline chloride] : Met
3. Cn1sccc1=O [2-Methyl-4-isothiazolin-3-one hydrochloride] : Not met

Task: Item C=C1CC[C@H](O)C/C1=C/C=C1\CCC[C@]2(C)[C@@H]([C@H](C)CCCC(C)C)CC[C@@H]12 [Vitamin D3] : IC50 cell viability (WST-8) beneath 6 µM, strictly?
Result: Not met

Task: Try O=CCc1ccccc1 [Phenylacetaldehyde] next.
Result: Not met

Task: What do you have for Oc1c(Cl)c(Cl)c(Cl)c(Cl)c1Cl [Pentachlorophenol] ?
Result: Met

---

Listing of recorded IC50 cell viability (WST-8) by entry.
Test system: NHEK immortalized keratinocytes
Conditions: 24 h
I only need the number, in µM, no unit after it.

Below, 7 molecules whose answers are already recorded.
1. CC(C)(c1ccc(OCC2CO2)cc1)c1ccc(OCC2CO2)cc1 (centres undefined) : 43.7
2. O=c1[nH]sc2ccccc12 : 1.68
3. CCCCCCCCCCCC(=O)O : 58.1
4. Oc1c(Cl)cc(Cl)c(Cl)c1Cc1c(O)c(Cl)cc(Cl)c1Cl : 0.37
5. C=CC(=O)OCC(CC)(COC(=O)C=C)COC(=O)C=C [Trimethylolpropane triacrylate] : 24.9
6. O=C(Nc1ccc(Cl)cc1)Nc1ccc(Cl)c(Cl)c1 : 2.31
7. O=C(c1ccccc1)c1ccc(O)cc1O [2,4-Dihydroxybenzophenone] : 44.4

Proceeding to the next molecule to report its IC50 cell viability (WST-8).
Task: I'm curious: which IC50 cell viability (WST-8) was measured for [K+].[K+].[O]=[Cr](=[O])([O-])[O][Cr](=[O])(=[O])[O-] [Potassium dichromate] tested on NHEK immortalized keratinocytes?
Result: 1.97

---

Below, each of the compounds is paired with its reported IC50 cell viability (WST-8) value.
Test system: NKTC primary neonatal keratinocytes
Conditions: 24 h
State just the number; it will be interpreted in µM.

Known IC50 cell viability (WST-8) results, listed for orientation:
1. Oc1c(Cl)cc(Cl)c(Cl)c1Cc1c(O)c(Cl)cc(Cl)c1Cl : 2.28
2. O=c1[nH]sc2ccccc12 : 21.4
3. CCCCCCCCCCCC[N+](C)(C)Cc1ccccc1 [Benzyldimethyldodecylammonium chloride] : 22.2
4. C=CC(=O)OCC(CC)(COC(=O)C=C)COC(=O)C=C [Trimethylolpropane triacrylate] : 24.9
5. O=C1OC2(c3cc(Br)c(O)c(Br)c3Oc3c2cc(Br)c(O)c3Br)c2c(Cl)c(Cl)c(Cl)c(Cl)c21 : 22.3
6. CN(C)c1ccc(C(=C2C=CC(=[N+](C)C)C=C2)c2ccc(N(C)C)cc2)cc1 [Methylrosaniline chloride] : 42.8
7. O=c1c(-c2ccccc2)c1-c1ccccc1 : 5.47
8. Oc1cc(Cl)ccc1Oc1ccc(Cl)cc1Cl : 87.4

Task: Which IC50 cell viability (WST-8) is reported for this compound? CC1(C)CNC(=NN=C(/C=C/c2ccc(C(F)(F)F)cc2)/C=C/c2ccc(C(F)(F)F)cc2)NC1 [Hydramethylnon]
Result: 51.3

Task: Next record, please: O=[N+]([O-])c1ccc(Cl)c([N+](=O)[O-])c1
Result: 9.18

---

Tested on: NHEK immortalized keratinocytes
Assay: IC50 cell viability (CellTiter-Glo)
Conditions: 24 h
Counter-ions that a name gives are not always drawn.
Entries and their IC50 cell viability
Answer with a number only, understood to be in µM.

Past entries and their recorded results:
1. O=CCCCC=O : 20.2
2. C=CC(=O)OCC(CC)(COC(=O)C=C)COC(=O)C=C [Trimethylolpropane triacrylate] : 24.9

Task: NHEK immortalized keratinocytes / IC50 cell viability / CCN(CC)c1ccc2c(-c3ccccc3C(=O)O)c3ccc(=[N+](CC)CC)cc-3oc2c1 : value?
Result: 42.8

Task: Let us now turn to O=c1[nH]sc2ccccc12
Result: 1.26

Task: Proceed to O=C1C=CC(=C(c2ccc(O)cc2)c2ccccc2S(=O)(=O)O)C=C1 [Phenol Red sodium salt]
Result: 79.9

---

Attribute: IC50 cell viability
Test system: NKTC primary neonatal keratinocytes
Assay: IC50 cell viability (CellTiter-Glo)
Settings: 24 h
The figure you give is taken to be in µM; do not add the unit.

# annotated cases, reported IC50 cell viability shown
1. O=c1[nH]sc2ccccc12 [1,2-Benzisothiazolin-3-one] : 16
2. CC1(C)CNC(=NN=C(/C=C/c2ccc(C(F)(F)F)cc2)/C=C/c2ccc(C(F)(F)F)cc2)NC1 [Hydramethylnon] : 38.9

With those in mind, consider the next molecule.
Task: Test system NKTC primary neonatal keratinocytes; read-out IC50 cell viability; what value for O=C(Nc1ccc(Cl)cc1)Nc1ccc(Cl)c(Cl)c1 [Triclocarban] ?
Result: 6.78

---

System: NHEK immortalized keratinocytes
Assay: IC50 cell viability (CellTiter-Glo)
Conditions: 24 h
Could you mark each record T if its IC50 cell viability falls strictly under 40 µM, and F if it equals or exceeds it?

Look over these answered cases.
1) CCCCNC(=O)OCC#CI [3-Iodo-2-propynyl-N-butylcarbamate] : F
2) CC(C)(C)C(=O)C(Oc1ccc(Cl)cc1)n1ccnc1 (centres undefined) : T
3) COc1ccc(C(C)=O)cc1 : F
4) CCN(CC)c1ccc(C(=C2C=CC(=[N+](CC)CC)C=C2)c2ccc(S(=O)(=O)O)cc2S(=O)(=O)[O-])cc1 : F
5) [K+].[K+].[O]=[Cr](=[O])([O-])[O][Cr](=[O])(=[O])[O-] [Potassium dichromate] : T
6) C[C@H](O)CCO : T

Task: Given CCCCCCCCCCCCc1ccc(S(=O)(=O)O)cc1 , is recorded IC50 cell viability strictly lower than 40 µM?
Result: T

---

Test system: NHEK immortalized keratinocytes
Assay: IC50 cell viability (CellTiter-Glo)
Details: 24 h
log10 IC50 cell viability overview
Reminder: these figures are log10 of reported IC50 cell viability, in µM before transformation.

Please review the following examples before continuing.
1) CN(C)c1ccc(C(=C2C=CC(=[N+](C)C)C=C2)c2ccc(N(C)C)cc2)cc1 [Methylrosaniline chloride] : 0.30
2) N#CC(Cl)(Cl)Cl : -0.10
3) CCCCC(CC)COC(=O)C(C#N)=C(c1ccccc1)c1ccccc1 (stereo not given) : 1.22
4) Cc1c2ccccc2c(C)c2c1ccc1ccccc12 : 1.66

Could you now look at the following compound, please?
Task: Please tell me: log10 IC50 cell viability of CCCCCCCCCCCCN1CCCC1=O , system NHEK immortalized keratinocytes?
Result: 1.26

---

Test system: NHEK immortalized keratinocytes
Assay: IC50 cell viability (CellTiter-Glo)
Conditions: 24 h
Where a name gives a salt, the structure may show the parent alone.
Each item that follows carries a reported IC50 cell viability.

Task: What value of measured IC50 cell viability is listed for N#CCCC(Br)(C#N)CBr (stereo not given) ?
Result: 60.4 µM

Task: Also, C=CC(=O)OCCO [2-Hydroxyethyl acrylate] please.
Result: 35.1 µM

Task: Similarly, CCCCCCCCCCCC[N+](C)(C)Cc1ccccc1 [Benzyldimethyldodecylammonium chloride] ?
Result: 2.91 µM

Task: Further, for C=CC(=O)OCCCCCCCC(C)C [Isodecyl acrylate] ?
Result: 3.55 µM

Task: Quick one: Oc1c(Cl)cc(Cl)c(Cl)c1Cc1c(O)c(Cl)cc(Cl)c1Cl
Result: 0.39 µM

Task: Follow-up item: CC(=O)[O][Hg][c]1ccccc1 [Phenylmercuric acetate]
Result: 0.06 µM

Task: Entry Oc1c(Cl)c(Cl)c(Cl)c(Cl)c1Cl please
Result: 0.51 µM

Task: Also, Cn1sccc1=O [2-Methyl-4-isothiazolin-3-one hydrochloride] please.
Result: 39.9 µM

Task: Same question, CC1=CC(=C(c2ccc(N)cc2)c2ccc(N)cc2)C=CC1=N this time
Result: 1.16 µM

Task: // query: O=c1c(-c2ccccc2)c1-c1ccccc1
Result: 30.8 µM

Task: Then this compound: CC(=O)OCC(C)OC(C)=O (stereo not given) [Propylene glycol diacetate]
Result: 35.7 µM

Task: Same read-out for O=CCc1ccccc1 ?
Result: > 88 µM

Task: Same question for O=[N+]([O-])c1ccc(Cl)c([N+](=O)[O-])c1 please.
Result: 5.43 µM

Task: Thanks! And CC(C)(C)c1cc(O)ccc1O [tert-Butylhydroquinone] ?
Result: 77.7 µM
